- ASSAYED SYSTEM: T1, GLP-1 receptor (rat), P32301
- T1 chain: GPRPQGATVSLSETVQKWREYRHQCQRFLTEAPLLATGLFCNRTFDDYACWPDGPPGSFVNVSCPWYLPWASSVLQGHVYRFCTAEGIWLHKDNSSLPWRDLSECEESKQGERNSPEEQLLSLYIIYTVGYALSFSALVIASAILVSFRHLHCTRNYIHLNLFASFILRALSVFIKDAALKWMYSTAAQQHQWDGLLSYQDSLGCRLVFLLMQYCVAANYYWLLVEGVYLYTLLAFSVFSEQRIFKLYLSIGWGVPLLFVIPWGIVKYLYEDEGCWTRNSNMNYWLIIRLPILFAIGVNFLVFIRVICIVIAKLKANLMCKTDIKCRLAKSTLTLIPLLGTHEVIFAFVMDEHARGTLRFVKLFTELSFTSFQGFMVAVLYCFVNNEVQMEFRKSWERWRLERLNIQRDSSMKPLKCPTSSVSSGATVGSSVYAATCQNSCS
- EXPERIMENT DESCRIPTION: competition
- RECORDED CONDITIONS: modification not given

BINDER: HSQGTFTSDYAKYLDARRAKEFIAWLVKGRK [G88]
IC50 [nM]: 109
//
BINDER: HSQGTFTSDYSKYLDSRRAQDFVQWLVKGR [G1]
IC50 [nM]: 6
//
BINDER: HSQGTFTSDYAKYLDARRAKEFIAWLVKGR [G87]
IC50 [nM]: 98.6
//
BINDER: HSQGTFTSDYAKYLDARRACEFIAWLVKGRG [G71]
IC50 [nM]: 5.8
//
BINDER: HSQGTFTSDYAKYLDARRAKEFIAWLVKCRG [G75]
IC50 [nM]: 7.7
//
BINDER: HSQGTFTSDYARYLDARRAREFIKWLVRGRG [G90]
IC50 [nM]: 25.4
//
BINDER: HSQGTFTSDYAKYLDARRAKEFIAWLVKGCG [G76]
IC50 [nM]: 10.2
